# TARGET: P-selectin (Homo sapiens, UniProt P16109)
# Construct: from tissue; host or cells: outdated human platelet packs from a blood bank
# Sequence (P16109 42-830): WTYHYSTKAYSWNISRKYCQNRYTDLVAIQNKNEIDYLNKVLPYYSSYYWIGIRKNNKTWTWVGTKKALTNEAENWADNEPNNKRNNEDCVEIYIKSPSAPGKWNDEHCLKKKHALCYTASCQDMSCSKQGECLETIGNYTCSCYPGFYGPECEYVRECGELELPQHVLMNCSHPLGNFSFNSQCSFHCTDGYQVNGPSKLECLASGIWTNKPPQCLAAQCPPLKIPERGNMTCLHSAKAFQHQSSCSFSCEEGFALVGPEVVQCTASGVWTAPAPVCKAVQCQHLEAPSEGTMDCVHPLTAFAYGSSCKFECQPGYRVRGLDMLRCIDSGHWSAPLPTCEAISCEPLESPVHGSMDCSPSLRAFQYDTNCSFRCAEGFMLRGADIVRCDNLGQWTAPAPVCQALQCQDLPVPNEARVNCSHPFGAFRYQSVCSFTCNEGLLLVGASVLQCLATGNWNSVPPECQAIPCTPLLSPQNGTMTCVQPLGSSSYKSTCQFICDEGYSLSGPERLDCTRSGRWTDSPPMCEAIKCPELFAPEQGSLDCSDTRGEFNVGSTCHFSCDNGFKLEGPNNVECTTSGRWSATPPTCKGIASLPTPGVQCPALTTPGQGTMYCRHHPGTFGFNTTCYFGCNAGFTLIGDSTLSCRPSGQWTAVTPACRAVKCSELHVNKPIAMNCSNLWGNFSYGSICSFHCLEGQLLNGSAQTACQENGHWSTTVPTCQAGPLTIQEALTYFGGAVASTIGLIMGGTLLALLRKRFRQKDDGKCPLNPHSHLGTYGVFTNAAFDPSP
# MEASUREMENT PROTOCOL: Inhibition of binding of human neutrophils to P-selectin (neutrophil adhesion to purified immobilized P-selectin, myeloperoxidase readout)
# Format: cell-based
# APPLIED CONDITIONS: P-selectin purified from human platelets, plated at 5 micrograms/mL, peptides tested 1.0 mM to 0.001 mM
pIC50: −log10 of the molar value. Where no end group is shown, it is not given here.
MEASURE NAME: pIC50

>>> value_observed("SKKKLILCY-NH2 [SEQ ID NO: 45, SKKKLILCY--NH2]")
4.02
>>> value_observed("SKKKLAFCY-NH2 [SEQ ID NO: 27, SKKKLAFCY--NH2]")
4.07
>>> value_observed("SKKKLAICY-NH2 [SEQ ID NO: 28, SKKKLAICY--NH2]")
3.97
>>> value_observed("Ac-SKKKLALIY-NH2 [SEQ ID NO: 34, Ac-SKKKLALIY--NH2]")
3.89
>>> value_observed("SKKKLFLCY-NH2 [SEQ ID NO: 43, SKKKLFLCY--NH2]")
4.02
>>> value_observed("Ac-SKKKTALCY-NH2 [SEQ ID NO: 47, Ac-SKKKTALCY--NH2]")
4.09
